System: mushroom tyrosinase
EXPERIMENT NOTES: Tyrosinase inhibition assay (L-DOPA substrate)
Type: biochemical
MEASUREMENT PARAMETERS: 50 μM
Listing of recorded Enzyme inhibition Tyrosinase by entry.
METRIC NAME: Enzyme inhibition Tyrosinase (%)

COMPOUND	ENDPOINT VALUE
O=c1oc2c(O)c(O)ccc2cc1-c1ccccc1Br [Compound 9, 3-(2′-Bromophenyl)-7,8-dihydroxycoumarin]	15.7
O=c1oc2cc(O)c(O)cc2cc1-c1cccc(O)c1	8.6
O=c1oc2ccc3ccccc3c2cc1-c1ccc(O)cc1 [Compound 13, 3-(4′-Hydroxyphenyl)benzo[f]coumarin]	23.2
O=c1oc2ccc3ccccc3c2cc1-c1cccc(O)c1 [Compound 14, 3-(3′-Hydroxyphenyl)benzo[f]coumarin]	22.3
O=c1oc2cc(O)c(O)cc2cc1-c1ccccc1O	22.7
O=c1oc2c(O)c(O)ccc2cc1-c1cccc(Br)c1 [Compound 8, 3-(3′-Bromophenyl)-7,8-dihydroxycoumarin]	33.6
O=c1oc2cc(O)c(O)cc2cc1-c1cccc(Br)c1 [Compound 5, 3-(3′-Bromophenyl)-6,7-dihydroxycoumarin]	80.3
O=c1oc2cc(O)c(O)cc2cc1-c1ccccc1Br [Compound 6, 3-(2′-Bromophenyl)-6,7-dihydroxycoumarin]	25.8
O=c1oc2cc(O)cc(O)c2cc1-c1ccc(Br)cc1 [Compound 1, 3-(4′-Bromophenyl)-5,7-dihydroxycoumarin]	98.3
O=c1oc2c(O)c(O)ccc2cc1-c1ccc(Br)cc1 [Compound 7, 3-(4′-Bromophenyl)-7,8-dihydroxycoumarin]	9.6
O=c1oc2cc(O)cc(O)c2cc1-c1ccccc1Br [Compound 3, 3-(2′-Bromophenyl)-5,7-dihydroxycoumarin]	29.3
O=c1oc2cc(O)cc(O)c2cc1-c1cccc(Br)c1 [Compound 2, 3-(3′-Bromophenyl)-5,7-dihydroxycoumarin]	79.2
O=c1oc2ccc3ccccc3c2cc1-c1cc(O)cc(O)c1	10.0
O=c1oc2cc(O)c(O)cc2cc1-c1ccc(Br)cc1 [Compound 4, 3-(4′-Bromophenyl)-6,7-dihydroxycoumarin]	58.3
O=c1oc2cc(O)ccc2cc1-c1cccc(Br)c1 [Compound 10, 3-(3′-Bromophenyl)-7-hydroxycoumarin]	56.9

----------
TESTED TARGET: Collagenase from Clostridium histolyticum
EXPERIMENT NOTES: Collagenase inhibition assay (FALGPA substrate)
Type: biochemical
MEASUREMENT PARAMETERS: mean ± SD of three independent experiments
pIC50: −log10 of the molar value.

MOLECULE	TESTED TARGET	pIC50
O=c1oc2cc(O)ccc2cc1-c1cccc(Br)c1 [Compound 10, 3-(3′-Bromophenyl)-7-hydroxycoumarin]	Collagenase from Clostridium histolyticum	< 3.82
O=c1oc2ccc3ccccc3c2cc1-c1cccc(O)c1 [Compound 14, 3-(3′-Hydroxyphenyl)benzo[f]coumarin]	Collagenase from Clostridium histolyticum	< 3.82
O=c1oc2cc(O)c(O)cc2cc1-c1cccc(Br)c1 [Compound 5, 3-(3′-Bromophenyl)-6,7-dihydroxycoumarin]	Collagenase from Clostridium histolyticum	< 3.82

----------
Test system: Collagenase from Clostridium histolyticum
EXPERIMENT NOTES: Collagenase inhibition assay (FALGPA substrate)
Type: biochemical
MEASUREMENT PARAMETERS: 100 μM
Description: Results from all the inhibition tests described below were reported as a percentage of the blank control. Since the compounds were dissolved in DMSO, in the assays carried out without compounds, DMSO was added to the reaction mixture as blank control. […] Data from activity experiments were recorded using an Ultrospec 2100 spectrophotometer (Biochrom Ltd., Cambridge, UK). […]
METRIC NAME: Enzyme inhibition Collagenase (%)

COMPOUND	METRIC NAME	UNIT	ENDPOINT VALUE
O=c1oc2ccc3ccccc3c2cc1-c1cc(O)cc(O)c1	Enzyme inhibition Collagenase	%	15.6
O=c1oc2cc(O)c(O)cc2cc1-c1ccccc1O	Enzyme inhibition Collagenase	%	39.3
O=c1oc2ccc3ccccc3c2cc1-c1cccc(O)c1 [Compound 14, 3-(3′-Hydroxyphenyl)benzo[f]coumarin]	Enzyme inhibition Collagenase	%	21.2
O=c1oc2ccc3ccccc3c2cc1-c1ccc(O)cc1 [Compound 13, 3-(4′-Hydroxyphenyl)benzo[f]coumarin]	Enzyme inhibition Collagenase	%	51.5
O=c1oc2cc(O)cc(O)c2cc1-c1ccc(Br)cc1 [Compound 1, 3-(4′-Bromophenyl)-5,7-dihydroxycoumarin]	Enzyme inhibition Collagenase	%	42.6
O=c1oc2cc(O)c(O)cc2cc1-c1cccc(Br)c1 [Compound 5, 3-(3′-Bromophenyl)-6,7-dihydroxycoumarin]	Enzyme inhibition Collagenase	%	18.2
O=c1oc2c(O)c(O)ccc2cc1-c1cccc(Br)c1 [Compound 8, 3-(3′-Bromophenyl)-7,8-dihydroxycoumarin]	Enzyme inhibition Collagenase	%	39.9
O=c1oc2cc(O)c(O)cc2cc1-c1cccc(O)c1	Enzyme inhibition Collagenase	%	35.7
O=c1oc2ccc3ccccc3c2cc1-c1ccc(O)c(O)c1	Enzyme inhibition Collagenase	%	7.9
